Biological target: T1, human IL-36α(R12), truncated (human, UniProt Q9UHA7 6-158)
T1 construct: Untagged after removal of the His-SUMO tag; also called hIL-36alpha
T1 chain: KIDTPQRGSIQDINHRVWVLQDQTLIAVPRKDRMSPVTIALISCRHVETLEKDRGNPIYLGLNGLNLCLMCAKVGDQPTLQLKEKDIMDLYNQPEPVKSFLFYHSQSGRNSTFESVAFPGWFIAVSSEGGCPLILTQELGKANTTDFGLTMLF
Experiment: SPR, Biacore, 1:1 Langmuir fit
valueType: Kd (nM)
Number only, in nM; omit the unit.

Solved entries:
I am curious: what Kd value has been reported for 144D464A (antibody, V domains shown, Mouse monoclonal from hybridoma; mouse IgG heavy and lambda light chain; also called mouse antibody 144D464A) VH: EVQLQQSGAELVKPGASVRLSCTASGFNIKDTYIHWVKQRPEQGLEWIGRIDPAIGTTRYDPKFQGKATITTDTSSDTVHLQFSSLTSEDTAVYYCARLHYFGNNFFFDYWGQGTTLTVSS VL: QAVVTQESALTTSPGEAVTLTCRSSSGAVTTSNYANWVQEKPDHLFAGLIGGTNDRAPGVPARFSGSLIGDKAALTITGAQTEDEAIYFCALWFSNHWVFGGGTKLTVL ? 1.32

Find the recorded Kd belonging to 144L249B LV7a HV11 (antibody, V domains shown, Humanized) VH: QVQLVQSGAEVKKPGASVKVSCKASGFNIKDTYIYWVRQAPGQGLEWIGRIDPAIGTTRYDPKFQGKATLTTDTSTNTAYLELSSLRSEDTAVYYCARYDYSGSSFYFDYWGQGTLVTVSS VL: QAVVTQEPSLTVSPGGTVTLTCRSSTGAVTTSNYANWVQQKPGQAFTGLIGGTNDRAPGVPARFSGSLLGGKAALTISGAQPEDEADYFCALWYSNHLVFGGGTKLTVL and report it. 1.37

Sample 144D464A LV11re HV10b (antibody, V domains shown, Humanized) VH: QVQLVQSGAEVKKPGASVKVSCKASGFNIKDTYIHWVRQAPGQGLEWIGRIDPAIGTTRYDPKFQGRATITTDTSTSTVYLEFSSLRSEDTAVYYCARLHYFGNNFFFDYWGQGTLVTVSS VL: QAVVTQEPSLTVSPGGTVTLTCRSSSGAVTTSNYANWVQEKPGQLFAGLIGGTNDRAPGVPARFSGSLLGGKAALTISGAQPEDEAIYFCALWFSNHWVFGGGTKLTVL — what was its Kd? 1.86

Continuing:
Need Kd, item 144L249B LV9 HV11 (antibody, V domains shown, Humanized) VH: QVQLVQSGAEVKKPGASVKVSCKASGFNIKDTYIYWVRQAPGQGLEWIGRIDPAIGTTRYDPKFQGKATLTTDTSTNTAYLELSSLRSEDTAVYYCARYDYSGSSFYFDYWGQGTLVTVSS VL: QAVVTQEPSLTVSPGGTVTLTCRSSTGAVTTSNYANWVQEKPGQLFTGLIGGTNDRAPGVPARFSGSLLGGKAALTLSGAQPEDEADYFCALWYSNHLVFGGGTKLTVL 1.29

So what's the measured Kd for this one? 144D464A LV7a HV10b (antibody, V domains shown, Humanized; also called humanized 144D464A antibody LV7a HV10b) VH: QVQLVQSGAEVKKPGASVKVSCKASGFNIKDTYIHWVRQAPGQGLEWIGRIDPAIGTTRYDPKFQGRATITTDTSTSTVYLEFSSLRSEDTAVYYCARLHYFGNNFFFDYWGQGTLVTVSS VL: QAVVTQEPSLTVSPGGTVTLTCRSSSGAVTTSNYANWVQQKPGQAFAGLIGGTNDRAPGVPARFSGSLLGGKAALTISGAQPEDEADYFCALWFSNHWVFGGGTKLTVL 2.09

// data source = patent US20210380675A1
